In this section, each of the sequences is paired with its reported apparent KD of MS2 coat protein.
# Tested on: MS2 coat protein
# RUN DESCRIPTION: apparent KD of MS2 coat protein; higher = weaker reporter binding
# CONDITION DETAILS: Eterna round: R107; input ligand: theophylline 20 uM
Dear colleague, please send the value followed by its unit.

// known answers, use as guide
{"SEQ STRING": "CCUAUCCAGUCGGCCGCCACUGAAAACAGUGGGUGAACAUGAGGAUCACCCAUGUAGGAUUUCCACAGGACCGGGACUGUAUAGG [Ex Tryptophan B 24]", "REPORTED VALUE": "1.3 µM"}
{"SEQ STRING": "AUAUAUACAUGAGGAUCACCCAUGUUAUUACGAGGACCGGUACGGCCGCCACUCGAUAGAGUAGAAGUAAAUUUUAAUUCAUGUA [JR_SSTryptoA_Sub007]", "REPORTED VALUE": "0.0157 µM"}
{"SEQ STRING": "UGUAUGUGAUUUGAUACCAGACCAGCUGGUGGUACUUGAGGAACACCCAAGUAGGUUUGGGUCCCUUGGCAGCAAAUCGCAUACU [SS Theo B #24 Ms11]", "REPORTED VALUE": "0.16 µM"}
{"SEQ STRING": "CUACAUUUGUAGAAACCGGUCAACAAUAAUCGAGGACCGGUACGGCCGCCACUCGUAUAAUUUUAUACAUGAGGAUCACCCAUGU [Tryptophan A 3]", "REPORTED VALUE": "0.0165 µM"}
{"SEQ STRING": "AAUGUAUGCCACAUGAGGAUCACCCAUGUGCGAGGACCGGUACGGCCGCCACUCGGUCGGUGGUUAAUGAAGAUAUACAAUAAUG [XTryp A #12]", "REPORTED VALUE": "0.0209 µM"}
{"SEQ STRING": "UGGUACAUGGCGGCCGCCACUUCACGUAAAAUAAAAACUUGAGGAACACCCAAGUAAUAAGUUGGGAGGACCGGGUCAUGUACCU", "REPORTED VALUE": "0.0417 µM"}
{"SEQ STRING": "AAUAAGUAUCUGCUAGGUGAUCCAGCAGAUACCAGCUAGGAAACUAGCCCUUGGCAGCUGCAACAUGAGGAUCACCCAUGUAAUA [(T)'-(M)'-(T1)-(T2)-(M1)-(M2)_Design3]", "REPORTED VALUE": "0.193 µM"}
{"SEQ STRING": "GCGACCCUGAGAUCCUGCGUAACGUGAACACGAGGACCGGUACGGCCGCCACUCGAGAGAACAUGAGGAUCACCCAUGUCUGAGC [e-trypA-0(N)]", "REPORTED VALUE": "0.0284 µM"}

Hello, I am looking for reported apparent KD of MS2 coat protein with MS2 coat protein for ACAUGAGGAUCACCCAUGUGAAGGCACGAUACCAGCUGAUCCCGUGGCCCUUGGCAGCGUCCGGUGUGGUCCGGCGGGUGGGACG [bbvmullin] . Could you help?
0.0754 µM

Try CCCACAAGCACGGCCGCCACUAUAUUAAUUACUGUCCUAGAACAUGAGGAUCACCCAUGUUAAUGUAGGACCGGGUGCGGGCCCG [theeternabot_exclusion_MS2_Trp_B_7] next.
0.0115 µM

For AAUAAUAAGGCGGCCGCCACUACACAUGAGGAUCACCCAUGUCUCGCGGGCUUGCGUUGGGAAAGUAGGACCGGGCCAAUAAUAA [Exclusion - Tryptophan B (Freestyle 9)] then?
0.026 µM

One more sequence: ACAUGAGGAUCACCCAUGUCAAGGCACGAUACCAGCUGAUCCCGUGGCCCUUGGCAGCGUCACGUUUGGUCCCGCGGAUGACACG [zczmullin]
0.111 µM

Do the same for AACAACAAGGGAAGGAGCGCGAAUAAUAAACAUGAGGAUCACCCAUGUAUCAUGGGCUUAACGCAGGUAGGUCGCCCACAAACAA [Exclusion Arginine B GF1] please
0.0472 µM

Could you do the same for UGUAUGUGAUUUGAUACCAGACCAGCUGGUGGUGCAUGAGGAUCACCCAUGCAGGUUUGGGUCCCUUGGCAGCAAAUCGCAUACU [SS Theo B #24 Ms17] , please?
0.135 µM

Where these numbers come from: the supplement of paper PMC9170038
